These measurements were taken from paper PMC3111191.

I'd be grateful if you could share measured Km for these entries.
- Substrate: NCCc1c[nH]c2ccccc12
- METHOD NOTES: colorimetric assay of CoASH release, non-linear regression
- Assay type: biochemical, Sparus aurata
- CONDITION SET: near-saturating AcCoA; apparent Km

Consider the worked cases shown below.
PROTEIN | REPORTED PROPERTY | RESULT
AANAT2 (Sparus aurata) (protein) MTQQVSGSPFFKPFFLKTPVSLLRQRRHTLPASEFRNLTPQDAISVFEIEREAFVSVSGECPLTLDEVLNFLGQCPELSLGWFEEGQLVAFIIGSGWGKERLSQEAMTQHVPDSPAVHIHVLSVHRHCRQQGKGSILLWRFLQYLRCIPGLRRALLICEEYLVPFYQKAGFKEKGPSAISISNMQFQEMEYTIGGQAYTRRNSGC | Km | 2000 µM
AANAT2 (Sparus aurata; G73T/L69R/N70H/Q74L) (protein) MTQQVSGSPFFKPFFLKTPVSLLRQRRHTLPASEFRNLTPQDAISVFEIEREAFVSVSGECPLTLDEVRHFLTLCPELSLGWFEEGQLVAFIIGSGWGKERLSQEAMTQHVPDSPAVHIHVLSVHRHCRQQGKGSILLWRFLQYLRCIPGLRRALLICEEYLVPFYQKAGFKEKGPSAISISNMQFQEMEYTIGGQAYTRRNSGC | Km | 1200 µM
AANAT2 (Sparus aurata; S123A) (protein) MTQQVSGSPFFKPFFLKTPVSLLRQRRHTLPASEFRNLTPQDAISVFEIEREAFVSVSGECPLTLDEVLNFLGQCPELSLGWFEEGQLVAFIIGSGWGKERLSQEAMTQHVPDSPAVHIHVLAVHRHCRQQGKGSILLWRFLQYLRCIPGLRRALLICEEYLVPFYQKAGFKEKGPSAISISNMQFQEMEYTIGGQAYTRRNSGC | Km | 650 µM

--- query ---
Challenge: Need Km of AANAT2 (Sparus aurata; I157M) (protein) MTQQVSGSPFFKPFFLKTPVSLLRQRRHTLPASEFRNLTPQDAISVFEIEREAFVSVSGECPLTLDEVLNFLGQCPELSLGWFEEGQLVAFIIGSGWGKERLSQEAMTQHVPDSPAVHIHVLSVHRHCRQQGKGSILLWRFLQYLRCIPGLRRALLMCEEYLVPFYQKAGFKEKGPSAISISNMQFQEMEYTIGGQAYTRRNSGC , thanks.
Response given: 900 µM
